test summary: chemical genetic growth profiling, strain panel (AID 1159580);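 further: tested at 20 µM; growth read once vehicle control cultures reached saturation at 30 °C; 1 = growth at the plate median or of vehicle wells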
condition description: S. cerevisiae deletion strains, growth OD, locus YLR418C, strain cdc73
Out of some 5,500 compounds screened, about 2,000 (36%) were called active. Not shown: some 18% with an inconclusive outcome. No stated cut-off is given here; in the data, active means normalized growth mostly below about 0.91 (no sharp cut-off); inconclusive means no clear call, values can overlap the other calls; inactive means mostly above about 0.92. This is one part of the list.
Answer with one of the outcomes given here: active, inactive

Field: outcome | Entry: CCN1CCCC(OC(=O)C(c2ccccc2)c2ccccc2)C1 (stereo not given)
inactive

Field: outcome | Entry: C[C@]12CCC(=O)C=C1C=CC1C2CC[C@@]2(C)C1CC[C@@]21CCC(=O)O1 (stereo not given in full)
active

Field: outcome | Entry: CC1(C)S[C@@H]2[C@H](NC(=O)[C@H](N)c3ccccc3)C(=O)N2[C@H]1C(=O)O
inactive

Field: outcome | Entry: CC1CCc2cc(F)cc3c(=O)c(C(=O)O)cn1c23 (stereo not given)
inactive

Field: outcome | Entry: c1ccc2c(c1)CCCC2C1=NCCN1 (stereo not given)
inactive

###

test summary: chemical genetic growth profiling, strain panel (AID 1159580);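 further: tested at 20 µM; growth read once vehicle control cultures reached saturation at 30 °C; 1 = growth at the plate median or of vehicle wells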
condition description: S. cerevisiae deletion strains, growth OD, locus YLR058C, strain SHM2, stronger effect = lower value
The campaign covered roughly 5,500 compounds. About 2,000 (36%) were called active. Inconclusive results (about 18%) are left out. Some of the results follow.
Mark 1 for normalized growth under 1, 0 if at or over.

# strict comparison: is reported normalized growth < 1? input = C=CCc1ccc(OC(=O)c2ccccc2)c(OC)c1
1

# strict comparison: is reported normalized growth < 1? input = O=c1cccc2ccc(O)c(O)c2c1O
1

# strict comparison: is reported normalized growth < 1? input = CC[C@@]1(O)C[C@H](O[C@H]2C[C@H](N(C)C)[C@H](O)[C@H](C)O2)c2c(cc3c(c2O)C(=O)c2c(O)cccc2C3=O)[C@H]1C(=O)OC
1

# strict comparison: is reported normalized growth < 1? input = C=C1CCC2[C@](C)(CO)[C@H](O)CC[C@@]2(C)[C@@H]1C/C=C1/C(=O)OC[C@H]1O (some centres not stated)
0

# strict comparison: is reported normalized growth < 1? input = CC[C@@]1(O)C[C@H](O[C@H]2C[C@H](N(C)C)[C@H](O)[C@H](C)O2)c2c(cc3c(c2O)C(=O)c2c(O)ccc(O)c2C3=O)[C@H]1C(=O)OC
1

# strict comparison: is reported normalized growth < 1? input = COC(=O)c1cc(=O)c(O)c2c(O)c(O)ccc2c1
1

###

test summary: chemical genetic growth profiling, strain panel (AID 1159580);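 further: tested at 20 µM; growth read once vehicle control cultures reached saturation at 30 °C; 1 = growth at the plate median or of vehicle wells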
condition description: S. cerevisiae deletion strains, growth OD, locus YHR129C, strain ARP1
The campaign covered roughly 5,500 compounds. About 2,000 (36%) were called active. Another 18% or so got no clear call; they are omitted. Cut-off read from the data, not from the text of the source: active = normalized growth mostly below about 0.91 (no sharp cut-off); inconclusive = no clear call, values can overlap the other calls; inactive = mostly above about 0.92. The list shows a part of the results.
Answer with one of the outcomes given here: Yes for active, No for inactive

Field: outcome | Entry: CC[C@@]1(O)C[C@H](O)c2c(cc3c(c2O)C(=O)c2c(O)ccc(O)c2C3=O)[C@H]1C(=O)OC
Yes

Field: outcome | Entry: Oc1ccc2c(c1)O[C@H](c1ccc(O)c(O)c1)[C@@H](O)C2
No

Field: outcome | Entry: C=C1CCC2[C@](C)(CO)[C@H](O)CC[C@@]2(C)[C@@H]1C/C=C1/C(=O)OC[C@H]1O (stereo partly drawn)
No

Field: outcome | Entry: CC1(C)CCC[C@@]2(C)C1[C@@H](O)C[C@]1(C)C2CC[C@@H]2[C@@]3(C)CC[C@H](C(C)(C)O)[C@@H]3CC[C@@]21C (stereo partly drawn)
No

Field: outcome | Entry: Oc1cc(O)c2c(c1)OC(c1cc(O)c(O)c(O)c1)C(O)C2c1c(O)cc(O)c2c1OC(c1cc(O)c(O)c(O)c1)C(O)C2c1c(O)cc(O)c2c1OC(c1cc(O)c(O)c(O)c1)C(O)C2 (stereo not drawn)
Yes

Field: outcome | Entry: C=C[C@@](C)(O)CCC1C(=C)CCC2[C@@](C)(CO)CCC[C@]12C (stereo partly drawn)
No

Field: outcome | Entry: CCCCC[C@H]1C(=O)O[C@H](C)[C@H](NC(=O)c2cccc(NC=O)c2O)C(=O)O[C@@H](C)[C@@H]1OC(=O)CC(C)C
Yes

Field: outcome | Entry: C=C[C@@](C)(O)CCC1C(=C)C[C@H](O)C2C(C)(C)CCCC12C (stereo partly drawn)
No

The origin of these recorded values is PubChem BioAssay AID1159580.
